Biological target: T1, human DLL3 over-expressed on 293 cells (human, UniProt Q9NYJ7 27-618)
T1 construct: identical extracellular and transmembrane regions; also called hDLL3; Delta-like ligand 3
T1 sequence: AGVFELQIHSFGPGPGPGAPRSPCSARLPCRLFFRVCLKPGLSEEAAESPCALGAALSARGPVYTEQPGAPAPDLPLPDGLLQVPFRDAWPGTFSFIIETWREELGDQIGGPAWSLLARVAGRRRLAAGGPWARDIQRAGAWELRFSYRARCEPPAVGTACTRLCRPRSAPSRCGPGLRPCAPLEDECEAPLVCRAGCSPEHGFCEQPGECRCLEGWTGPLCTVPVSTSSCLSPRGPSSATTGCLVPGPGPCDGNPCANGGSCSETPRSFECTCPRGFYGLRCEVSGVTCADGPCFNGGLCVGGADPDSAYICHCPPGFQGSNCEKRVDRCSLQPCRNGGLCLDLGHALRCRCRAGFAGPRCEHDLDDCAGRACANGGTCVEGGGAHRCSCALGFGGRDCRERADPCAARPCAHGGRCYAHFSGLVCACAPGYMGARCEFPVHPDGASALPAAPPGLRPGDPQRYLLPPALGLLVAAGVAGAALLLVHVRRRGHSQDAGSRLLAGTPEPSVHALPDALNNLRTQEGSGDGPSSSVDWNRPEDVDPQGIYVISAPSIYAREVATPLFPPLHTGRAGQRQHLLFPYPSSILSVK
Experiment: flow cytometry, 293 cells over-expressing human DLL3

binder	binding result
SC16.65 (antibody, V domains shown, murine mAb; V regions only) VH: QVTLKESGPGILQPSQTLSLTCSFSGFSLSTSGMGVGWIRQPSGKGLEWLALIWWDDVKRYNPALKSRLTISKDASSSQVFLKIASVDTADTATYYCARIASYDYDVVYAMDYWGQGTSVSVSS VL: QIVLTQSPALMSASPGEKVTMTCSVTSSVSYMYWYQQKPRSSPKPWIYLTSNLASGVPARFSGSGSGTSYSLTISSVEAEDAATYYCQQWRNNPFTFGSGTKVEIK	binds
SC16.34 (antibody, V domains shown, murine mAb; V regions only) VH: QIQLVQSGPELKRPGETVKISCKASGYTFTNYGMNWVKQAPGKGLKWMGWINTYTGDPTYADDFKGRFAFSLETSASTAYLQINNLKNEDTATYFCARIGGNSPSDYWGQGTSLTVSS VL: SIVMTQTPKFLLVSAGDRVTITCKASQSVSNDVAWYQQKPGQSPKLLIYYASNRYSGVPDRFTGSGYGTDFTFTISTVQAEDLAVYFCQQDYSSPWTFGGGTKLEIK	binds
SC16.10 (antibody, V domains shown, murine mAb; V regions only) VH: QVTLKESGPGILQSSQTLSLTCSFSGFSLSTSGMGVGWIRQPSGKGLEWLAHIWWDDVKRYNPVLKSRLTISKDTSSSQVFLKIASVDTADTATYYCARLVDDLYYFDYWGQGTTLTVSS VL: QIVLTQSPAIMSASLGERVTMTCTASSSVSSSYLHWYQQKPGSSPKLWIYSTSNLASGVPTRFSGSGSGTSYSLTISSMEAEDAATYYCHQYHRSPFTFGSGTKLEIK	binds
